# assay_system: Ephrin type-A receptor 3 (Homo sapiens);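 also: mean inhibition value reported from the GSK PKIS kinase profiling screen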
# assay_setup: at 1 µM
property_measured: inhibition (%)
One number for each entry, in %.

COC(=O)Nc1nc2ccc(Oc3ccc(NC(=O)Nc4cc(C(F)(F)F)ccc4F)cc3)cc2s1    68.4
c1cnn2ncc(-c3ccnc(NCCCN4CCOCC4)n3)c2c1    6.16

Next molecule, inhibition to be filled in.
// returns reported inhibition for input CS(=O)(=O)CCNCc1ccoc1-c1ccc2ncnc(Nc3ccc(OCc4ccccc4)cc3)c2c1
2.32

----------
# assay_system: Serine/threonine-protein kinase PAK 1 (Homo sapiens) (UniProt Q13153);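 also: reported values are mean percent inhibition of PAK1 activity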
# Sequence (Q13153 whole entry): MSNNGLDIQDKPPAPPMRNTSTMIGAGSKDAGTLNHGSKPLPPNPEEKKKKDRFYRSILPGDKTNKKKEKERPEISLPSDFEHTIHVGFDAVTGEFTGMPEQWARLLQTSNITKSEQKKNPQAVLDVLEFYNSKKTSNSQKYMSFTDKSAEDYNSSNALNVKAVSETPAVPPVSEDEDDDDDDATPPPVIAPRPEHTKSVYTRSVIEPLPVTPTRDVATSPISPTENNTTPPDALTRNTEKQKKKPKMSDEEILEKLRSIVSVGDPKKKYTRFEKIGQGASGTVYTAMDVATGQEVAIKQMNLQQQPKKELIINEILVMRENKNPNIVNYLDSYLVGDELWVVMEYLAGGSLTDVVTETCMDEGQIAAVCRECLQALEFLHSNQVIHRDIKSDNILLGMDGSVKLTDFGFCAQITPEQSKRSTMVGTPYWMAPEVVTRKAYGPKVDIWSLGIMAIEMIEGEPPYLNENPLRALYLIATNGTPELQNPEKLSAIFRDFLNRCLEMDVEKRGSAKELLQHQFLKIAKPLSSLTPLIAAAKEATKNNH
# assay_setup: at 1 µM
property_measured: inhibition (%)
Numbers only, in %.

Below are worked cases with known answers.
Fc1ccc(Nc2nccc(-c3c(-c4ccc(C(F)(F)F)cc4)nn4ncccc34)n2)cc1F    4.66
c1ccc(-c2n[nH]cc2-c2ccnc(-c3ccc(OCCn4ccnc4)cc3)c2)nc1    3.78
COc1cc2c(cc1Nc1nc(Nc3cccc(F)c3C(N)=O)c3cc[nH]c3n1)N(C(=O)CN1CCN(C(C)C)CC1)CC2    8.11
OCCCNc1nccc(-c2c(-c3ccc(F)cc3)nn3cc(C(F)(F)F)ccc23)n1    5.57

Provide inhibition values for the following items, in order.
1. Cc1ccc(-c2cc3c(NC(=O)C4CC4)ncnc3o2)cc1
2. Cn1c(-c2nonc2N)nc2cnccc21
3. Cc1cc(O)cc(C)c1/C=C/c1cncc(C(N)=O)c1
4. COC(=O)Nc1nc2ccc(Oc3ccc(NC(=O)Nc4cc(C(F)(F)F)ccc4F)cc3)cc2s1

1. 5.51
2. 9.42
3. 3.22
4. 1.52

Dear colleague, could you please provide inhibition for the molecules listed below?
1. CC(C)c1ccc(-c2cc(-c3c[nH]nc3-c3ccccn3)ccn2)cc1
2. COc1cc(N2CCN(C(C)C)CC2)ccc1Nc1nc(Nc2cccc(F)c2C(=O)O)c2cc[nH]c2n1
3. CCn1c(-c2nonc2N)nc2cncc(C(=O)NCCNC)c21
4. N#Cc1cccc(Nc2ncc(-c3ccccc3)o2)c1

-1.39
5.79
7.29
-0.39

----------
# assay_system: Receptor-type tyrosine-protein kinase FLT3 (Homo sapiens);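 also: mean inhibition value from the GSK PKIS kinase screening set, with the assay run by Nanosyn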
# assay_setup: at 0.1 µM
Answer each item with its documented inhibition.
One number for each entry, in %.

Guide cases for inhibition, answers given:
CS(=O)(=O)Nc1ccc(-c2cc(-c3ccccc3)cc(C(N)=O)c2N)cc1    6
CNC(=O)c1sc(-n2cnc3cc(OC)c(OC)cc32)cc1OCc1ccccc1C(F)(F)F    2.13
O=C(Nc1n[nH]c2nnc(-c3cccnc3)cc12)C1CC1    -0.64
CC1=C(C(=O)Nc2ccc3[nH]nc(C)c3c2)C(c2ccc(C(F)(F)F)cc2)CC(=O)N1 (stereo not drawn)    -0.53
Cc1c2ccc(N(C)c3ccnc(Nc4cccc(S(N)(=O)=O)c4)n3)cc2nn1C    2.48
COc1ccccc1-c1cc(/C=C2\C(=O)Nc3ncc(Br)cc32)cc(Br)c1O    4.36
CCCNc1cccc(-n2ncc3c(N/N=C/c4ccncc4)ncnc32)c1    4.53

Here's the next entry for you.
Look up inhibition for this compound: CC(C)c1ccc(-c2cc(-c3c[nH]nc3-c3ccccn3)ccn2)cc1
-2.11

----------
# assay_system: Non-receptor tyrosine-protein kinase TNK1 (Homo sapiens);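 also: reported values are mean inhibition figures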
# assay_setup: at 0.1 µM
Answer each item with its documented inhibition.
Answers are plain numbers, in %.

N#Cc1cccc(Nc2ncc(-c3ccccc3)o2)c1    2.36
CC1=C(C(=O)Nc2ccc3[nH]ncc3c2)C(c2ccc(F)cc2)N=C(c2ccc(C(F)(F)F)nc2)N1 (stereo not drawn)    1.86

Requested read-out: inhibition. Entry: NS(=O)(=O)c1cccc(N/C=C2\C(=O)Nc3ccccc32)c1
3.06
